# target or test system: PVNZ112.6-CBP (Parapoxvirus of red deer in New Zealand (PVNZ), strain RD86)
# test method notes: SPR; CBP-FLAG immobilised by amine coupling on a CM5 chip (300-400 RU, 10 mM sodium acetate pH 4.5); serial dilutions of mouse chemokine flowed in triplicate for 3 min, 10 min dissociation; 25°C; HBS-EP buffer (20 mM HEPES, 150 mM NaCl, 3.4 mM EDTA, 0.005% Polysorbate 20, pH 7.4); Biacore X100; global fit with a 1:1 binding model
Binary call on koff: Fulfilled from 0.01 s⁻¹ upward, Not fulfilled beneath that.

- binder: "recombinant mouse CCL3 (ligand) APYGADTPTACCFSYSRKIPRQFIVDYFETSSLCSQPGVIFLTKRNRQICADSKETWVQEYITDLELNA"
  class: "Fulfilled"
- binder: "recombinant mouse CXCL4 (ligand) VTSAGPEESDGDLSCVCVKTISSGIHLKHITSLEVIKAGRHCAVPQLIATLKNGRKICLDRQAPLYKKVIKKILES"
  class: "Fulfilled"
- binder: "recombinant mouse CXCL10 (ligand) IPLARTVRCNCIHIDDGPVRMRAIGKLEIIPASLSCPRVEIIATMKKNDEQRCLNPESKTIKNLMKAFSQKRSKRAP"
  class: "Not fulfilled"
- binder: "recombinant mouse CCL19 (ligand) GANDAEDCCLSVTQRPIPGNIVKAFRYLLNEDGCRVPAVVFTTLRGYQLCAPPDQPWVDRIIRRLKKSSAKNKGNSTRRSPVS"
  class: "Not fulfilled"

Now consider a different binder.
## Input Decide: is the reported value of koff for recombinant mouse CCL22 (ligand) GPYGANVEDSICCQDYIRHPLPSRLVKEFFWTSKSCRKPGVVLITVKNRDICADPRQVWVKKLLHKLS equal to or greater than 0.01 s⁻¹?
## Output Not fulfilled
